Listing: half-life of selected compounds
Assay: Metabolic stability in rat whole blood assessed as half-life incubated upto 120 mins by LC/MS analysis
Assay type: ADME, tissue-based

CC(Cc1cccc(C(F)(F)F)c1)NCCOC(=O)c1ccccc1 (centres undefined) [BENFLUOREX]	0.42 h
C=C[C@]1(C)C[C@@H](OC(=O)CS[C@@H]2C[C@H]3CC[C@@H](C2)N3C)[C@]2(C)[C@H](C)CC[C@]3(CCC(=O)[C@H]32)[C@@H](C)[C@@H]1O [RETAPAMULIN]	> 2 h
C=C[C@]1(C)C[C@@H](OC(=O)CSCCN(CC)CC)[C@]2(C)[C@H](C)CC[C@]3(CCC(=O)[C@H]32)[C@@H](C)[C@@H]1O [TIAMULIN]	> 2 h

Continue with the next compound.
I would be grateful if you could share the reported half-life for `C=C[C@]1(C)C[C@@H](OC(=O)CSc2nc3[nH]ccc3c(=O)[nH]2)[C@]2(C)[C@H](C)CC[C@]3(CCC(=O)[C@H]32)[C@@H](C)[C@@H]1O` . > 2 h

---

Assay: Metabolic stability in rat liver microsomes assessed as intrinsic clearance incubated for 45 mins in the presence of NADPH by LC/MS analysis
Assay type: ADME, Microsome
Conditions: read-out: CLH
Listing: microsomal CLint of selected compounds
Respond with the bare value in µL/min/mg.

I would be grateful if you could share the reported microsomal CLint for `C=C[C@]1(C)C[C@@H](OC(=O)CSCCN(CC)CC)[C@]2(C)[C@H](C)CC[C@]3(CCC(=O)[C@H]32)[C@@H](C)[C@@H]1O` . 1340

I would be grateful if you could share the reported microsomal CLint for `C=C[C@]1(C)C[C@@H](OC(=O)CN2CCN(c3nc4ccccc4c(=O)[nH]3)CC2)[C@]2(C)[C@H](C)CC[C@]3(CCC(=O)[C@H]32)[C@@H](C)[C@@H]1O` . 3070

I would be grateful if you could share the reported microsomal CLint for `O=C(c1ccc(F)cc1)C1CCN(CCn2c(=O)[nH]c3ccccc3c2=O)CC1` . 88.9

I would be grateful if you could share the reported microsomal CLint for `C=C[C@]1(C)C[C@@H](OC(=O)CS[C@@H]2C[C@H]3CC[C@@H](C2)N3C)[C@]2(C)[C@H](C)CC[C@]3(CCC(=O)[C@H]32)[C@@H](C)[C@@H]1O` . 755

I would be grateful if you could share the reported microsomal CLint for `C=C[C@]1(C)C[C@@H](OC(=O)CSc2nc3[nH]ccc3c(=O)[nH]2)[C@]2(C)[C@H](C)CC[C@]3(CCC(=O)[C@H]32)[C@@H](C)[C@@H]1O` . 764

I would be grateful if you could share the reported microsomal CLint for `C=C[C@]1(C)C[C@@H](OC(=O)CSc2nc3c(F)cccc3c(=O)[nH]2)[C@]2(C)[C@H](C)CC[C@]3(CCC(=O)[C@H]32)[C@@H](C)[C@@H]1O` . 1390

---

System: Staphylococcus aureus
Assay: microbe, parasite or virus in culture
Type: functional
Conditions: time 20 hrs
quantity: MIC (µg/mL)
Respond with the bare value in µg/mL.

// known answers, use as guide
C=C[C@]1(C)C[C@@H](OC(=O)CN2CCN(Cc3nc4ccccc4c(=O)[nH]3)CC2)[C@]2(C)[C@H](C)CC[C@]3(CCC(=O)[C@H]32)[C@@H](C)[C@@H]1O	2
C=C[C@]1(C)C[C@@H](OC(=O)CSc2nc3ccc(OC)cc3c(=O)[nH]2)[C@]2(C)[C@H](C)CC[C@]3(CCC(=O)[C@H]32)[C@@H](C)[C@@H]1O	0.25
C=C[C@]1(C)C[C@@H](OC(=O)CSc2nc3c(C)cccc3c(=O)[nH]2)[C@]2(C)[C@H](C)CC[C@]3(CCC(=O)[C@H]32)[C@@H](C)[C@@H]1O	0.125

Item: `C=C[C@]1(C)C[C@@H](OC(=O)CSc2nc3sccc3c(=O)[nH]2)[C@]2(C)[C@H](C)CC[C@]3(CCC(=O)[C@H]32)[C@@H](C)[C@@H]1O` Test system: Staphylococcus aureus Read-out: MIC Value: ? 0.25

Item: `C=C[C@]1(C)C[C@@H](OC(=O)CSc2nc3ncccc3c(=O)[nH]2)[C@]2(C)[C@H](C)CC[C@]3(CCC(=O)[C@H]32)[C@@H](C)[C@@H]1O` Test system: Staphylococcus aureus Read-out: MIC Value: ? 2
